# ASSAY_SYSTEM: Serine/threonine-protein kinase PAK 5 (Homo sapiens)
# TEST: ligand-induced stabilization of human PAK5 kinase – biophysical, DSF, SYPRO orange, recombinant protein (AID 390)
# EXPERIMENTAL_SETUP: recombinant PAK5, DSF thermal shift, at 10 µM, hits give high values
Reported Tm shift values for the following molecules.

Cn1cc(/C=C2\C(=O)Nc3ccc(S(N)(=O)=O)cc32)c2ccccc21 | 4.3 Celsius

Req: Answer with the recorded Tm shift for the molecule listed here: O=C1NC(=O)c2c1c1c3ccccc3n3c1c1c2c2ccccc2n1[C@@H]1CCC3O1
Resp: 3.69 Celsius

Req: Hello, please tell me recorded Tm shift for this one: O=C1Cc2c([nH]c3ccc(N(O)O)cc23)-c2ccccc2N1
Resp: 3.9 Celsius

Req: Supply measured Tm shift of CCn1cnc2c(Nc3cccc(Cl)c3)nc(N[C@@H]3CCCC[C@@H]3N)nc21 in your reply.
Resp: 6.75 Celsius

Req: Give me measured Tm shift, please, for this molecule: O=C1NCc2c1c1c3ccccc3[nH]c1c1[nH]c3ccccc3c21
Resp: 4.4 Celsius

Req: Specify measured Tm shift for O=C1Cc2c([nH]c3ccc(Br)cc23)-c2ccccc2N1 .
Resp: 3.5 Celsius

Req: Using known records, supply Tm shift for N#CCCc1ccc2c(c1)-c1[nH]c3ccc(-n4oo4)cc3c1CC(=O)N2
Resp: 4.05 Celsius

Req: Indicate its recorded Tm shift; the molecule in question is OCC(O)CCO/N=C1/C(c2c(O)[nH]c3ccccc23)=Nc2ccccc21 (stereo not given)
Resp: 3.37 Celsius

Req: Tell me its Tm shift given CC(O)(O)C1(O)C[C@@H]2O[C@@]1(C)n1c3ccccc3c3c4c(c5c6ccccc6n2c5c31)C(=O)NC4 (stereo not given in full) as the entry.
Resp: 5.05 Celsius

Req: Note Tm shift for the molecule shown: CCN(CC)CCNC(=O)c1c(C)[nH]c(/C=C2\C(=O)Nc3ccc(Cl)cc32)c1C
Resp: 4.47 Celsius
